Tested on: SW480
assay: Cytotoxicity against human SW480 cells after 48 hrs by MTT assay
Type: functional, cell-based
assay_setup: Homo sapiens, SW480, 48 h; read-out: IC50
readout_label: IC50 (µM)
Answer with a number only, understood to be in µM.

Given C=C1C(=O)[C@]23[C@H](O)[C@H]1CC[C@H]2[C@@]12CO[C@]3(O)[C@@H](O)[C@@H]1C(C)(C)CC[C@@H]2O [ORIDONIN] , state its recorded IC50.
7.2
